# subject of test: HCV NS3/4A protease genotype 1b (Hepatitis C virus genotype 1b, UniProt P26663)
# experiment: HCV NS3/4A protease time-resolved fluorescence (TRF) assay, Ki against genotype 1b
# Type: biochemical
# experimental parameters: IC50 [gt-1b] (nM), NS3/4A genotype 1b, enzyme 0.2 nM
Simple rule here: IC50 less than 0.02 nM is rule met, otherwise rule not met.

# strict comparison: is reported IC50 < 0.02 nM? input = Cc1nc2ccc(OC(F)(F)F)cc2c2c1O[C@]1(CC2)C[C@H]2C(=O)N[C@]3(C(=O)NS(=O)(=O)C4(C)CC4)C[C@H]3/C=C\CCCCC[C@H](NC(=O)OCC3CCCC3)C(=O)N2C1 [Example 146]
rule not met

Determine whether this molecule shows IC50 lower than 0.02 nM (ties excluded): COCC(C)(C)OC(=O)N[C@H]1CCCCC/C=C\[C@@H]2C[C@@]2(C(=O)NS(=O)(=O)C2(C)CC2)NC(=O)[C@@H]2C[C@@]3(CN2C1=O)CC(F)(F)c1c(c(C(C)C)nc2ccc(OC)cc12)O3 [Example 242]
rule not met

IC50 under 0.02 nM? Item: COc1ccc2nc(C(F)(F)F)c3c(c2c1)[C@@H](N1CCOCC1)C[C@]1(C[C@H]2C(=O)N[C@]4(C(=O)NS(=O)(=O)C5(C)CC5)C[C@H]4/C=C\CCCCC[C@H](NC(=O)OC(C)(C)C)C(=O)N2C1)O3 [Example 65]
rule met

Does this molecule meet the criterion IC50 < 0.02 nM? Cc1nc2ccc(Cl)cc2c2c1O[C@]1(CC2)C[C@H]2C(=O)N[C@]3(C(=O)NS(=O)(=O)C4(C)CC4)C[C@H]3/C=C\CCCCC[C@H](NC(=O)OCC3CCCC3)C(=O)N2C1 [Example 231]
rule not met

Say whether its IC50 is strictly beneath 0.02 nM. Entry: Cc1nc2ccccc2c2c1O[C@]1(CC2)C[C@H]2C(=O)N[C@]3(C(=O)NS(=O)(=O)C4(C)CC4)C[C@H]3/C=C\CCCCC[C@H](NC(=O)OC3CCN(C)CC3)C(=O)N2C1 [Example 117]
rule not met

Input COc1cccc(N[C@H]2CCCCC/C=C\[C@@H]3C[C@@]3(C(=O)NS(=O)(=O)C3(C)CC3)NC(=O)[C@@H]3C[C@]4(CCc5c(c(C)nc6ccccc56)O4)CN3C2=O)c1 [Example 341] ; condition: IC50 strictly below 0.02 nM. Does it hold?
rule not met

Would you kindly verify if IC50 of CC(C)(OC(=O)N[C@H]1CCCCC/C=C\[C@@H]2C[C@@]2(C(=O)NS(=O)(=O)C2(C)CC2)NC(=O)[C@@H]2C[C@]3(CCc4c(c(C(F)F)nc5ccccc45)O3)CN2C1=O)C(F)(F)F [Example 309] is strictly less than 0.02 nM?
rule met

Item Cc1nc2ccccc2c2c1O[C@]1(CC2)C[C@H]2C(=O)N[C@]3(C(=O)NS(=O)(=O)C4(C)CC4)C[C@H]3/C=C\CCCCC[C@H](NC(=O)OCC(C)C)C(=O)N2C1 [Example 97] : IC50 beneath 0.02 nM, strictly?
rule met

Lab log: compare recorded IC50 with 0.02 nM; is it strictly lower for COc1ccc2nc(C)c3c(c2c1)C(F)(F)C[C@]1(C[C@H]2C(=O)N[C@]4(C(=O)NS(=O)(=O)C5(C)CC5)C[C@H]4/C=C\CCCCC[C@H](NC(=O)OC4CCCC4)C(=O)N2C1)O3 [Example 260] ?
rule met
